tested.on: T1, full-length beta-Catenin (Uniprot ID P35222) (Homo sapiens (Human), UniProt P35222 2-781)
T1 construct: Also used here for the endogenous beta-catenin of the DLD1 TCF reporter cells; also called bCat; B-Catenin
T1 sequence: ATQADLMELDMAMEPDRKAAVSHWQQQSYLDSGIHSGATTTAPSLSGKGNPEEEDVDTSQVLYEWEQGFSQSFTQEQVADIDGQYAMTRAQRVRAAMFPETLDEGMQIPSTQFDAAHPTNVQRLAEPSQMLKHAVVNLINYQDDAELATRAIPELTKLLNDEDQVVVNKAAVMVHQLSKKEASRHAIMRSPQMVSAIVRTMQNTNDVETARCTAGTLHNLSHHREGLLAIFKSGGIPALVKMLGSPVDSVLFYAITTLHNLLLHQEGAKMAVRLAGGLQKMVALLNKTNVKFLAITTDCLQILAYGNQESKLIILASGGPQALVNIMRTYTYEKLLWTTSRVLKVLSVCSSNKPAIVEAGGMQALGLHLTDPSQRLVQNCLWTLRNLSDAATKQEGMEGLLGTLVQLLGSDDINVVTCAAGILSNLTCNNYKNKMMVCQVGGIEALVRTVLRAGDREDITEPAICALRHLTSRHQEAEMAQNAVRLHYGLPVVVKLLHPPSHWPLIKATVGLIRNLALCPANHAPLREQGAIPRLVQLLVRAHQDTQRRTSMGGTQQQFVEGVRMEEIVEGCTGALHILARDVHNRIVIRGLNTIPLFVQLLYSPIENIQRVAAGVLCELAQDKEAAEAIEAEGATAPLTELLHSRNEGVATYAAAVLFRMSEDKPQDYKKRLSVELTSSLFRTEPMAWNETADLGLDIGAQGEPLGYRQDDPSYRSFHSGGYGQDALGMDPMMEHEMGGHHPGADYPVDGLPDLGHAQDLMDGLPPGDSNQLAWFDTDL
method.description: fluorescence polarization competition; full-length beta-catenin, competitor 5FAM-TCF4(10-53) probe
Starred links: 1 amine or outer side, 2 acyl side, 3 side chain; linkers in the order of their positions; H or OH if unused. Positions of bridges follow the written chain, without caps; N, C: chain ends. Non-standard residues stand in square brackets, D forms with d. Primed or numbered codes have the meaning given here. B5(4) = 2,2-bis(4-pentenyl)glycine = 2-amino-2-(pent-4-en-1-yl)hept-6-enoic acid (stitching residue), C=CCCCC(CCCC=C)(N[*:1])C(=O)[*:2]; Bta = N[C@@H](Cc1csc2ccccc12)C(=O)O; αAllylPro = C=CC[C@@]1(C(=O)O)CCCN1; S8 = C=CCCCCCC[C@](C)(N)C(=O)O; NMeS = CN[C@@H](CO)C(=O)O
# reported EC50; entries follow
Answer in nM, number only, no unit symbol.

Examples with their reported EC50 follow.
binder	value.unit	EC50
Ac-[αAllylPro]DL[B5(4)]DEAAFN[S8]F[Bta][dT]-NH2 (staple 1-4, 4-11; also: earlier-eluting HPLC peak (staple isomer), Stapled peptide composition) [I-754]	nM	115
Ac-[αAllylPro]DL[B5(4)]DEAAFN[S8]F[Bta][NMeS]-NH2 (staple 1-4, 4-11; also: earlier-eluting HPLC peak (staple isomer), Stapled peptide composition) [I-759]	nM	1530

# EC50 lookup, item Ac-[αAllylPro]DL[B5(4)]DEAAFN[S8]F[Bta][dT]-NH2 (staple 1-4, 4-11; also: later-eluting HPLC peak (staple isomer), Stapled peptide composition) [I-755]
88
